System: hTERT-HUVEC cells
Test: Endothelial tube formation assay after liposomal transfection
Format: cell-based, human
Settings: oligonucleotide 1 μM, DOTAP/DOPE, 4 h transfection, 3 h on Matrigel; repeated set; non-treated control 58.0±2.9
Protocol: A further experiment was carried out in order to study the effect of single antisense molecules and their combinations in the prevention of endothelial cell tube formation by immortal human umbilical vein endothelial cells (hTERT-HUVECs). […]
# mean ±SEM tube number/well, single nucleotide assay 4b listing for each entry below
Reply numerically in tube number/well, unit not repeated.

As a guide, the following entries are already answered.
substance="5′-CCTCTGCACCTATTGGACCC-3′ (DNA, all phosphorothioate, methylation of C not given here; listed as Homo sapiens) [AS-1, human neuropeptide Y2-receptor mRNA antisense molecule]" readingunit="tube number/well" measuredvalue=54.3
substance="5′-GTTTGTGGCCCGTATTGTTCC-3′ (DNA, all phosphorothioate, methylation of C not given here; listed as Homo sapiens) [AS-2, human neuropeptide Y2-receptor mRNA antisense molecule]" readingunit="tube number/well" measuredvalue=75.0
substance="5′-GGCCACTGTTCTTTCTGACC-3′ (DNA, all phosphorothioate, methylation of C not given here; listed as Homo sapiens) [AS-3, human neuropeptide Y2-receptor mRNA antisense molecule]" readingunit="tube number/well" measuredvalue=23.0

Pending substance:
Task item: Identify measured mean ±SEM tube number/well, single nucleotide assay 4b associated with 5′-CCCAGGTTATCCACGTCTCC-3′ (DNA, all phosphorothioate, methylation of C not given here; listed as Homo sapiens) [AS-1 control, control oligonucleotide for AS-1, reference compound]
Reply: 57.0
